# measurement protocol: Neurotoxicity test, MTT-dye reduction assay on neuro-2A cells
# Assay type: cell-based, murine
# conditions used: mouse, neuro-2A neuroblastoma cells, 72 h incubation
measure: IC50 at 72 h

1. COc1ccc2c3c1O[C@H]1C[C@@H](O)C=C[C@@]31CCN(CCNC(=O)CCc1ccccc1-c1ccccc1)C2
> 100 µM

Data credit: paper PMC8038331
